Tested on: HCC 2998
Experimental Protocol: NCI tumour cell line growth inhibition, 48 h
Activity calls are given as the source filed them. No stated cut-off is given here; in the data, active = GI50 up to about 1.1 µM and inactive = higher.
Output constraint: value belongs to true (active), false (inactive)

Hello, I am checking results. What call was entered for `O=[N+]([O-])c1ccc2[nH]c3c(-c4ccccc4)nccc3c2c1` ?
false

Then what about the molecule COc1cc(/C=C2\C(=O)N(c3cccc(Cl)c3)C(c3ccccc3)S2(=O)=O)cc(OC)c1OC (stereo not drawn) ?
false

Same for `O=C(N/N=C\C=C\c1ccc([N+](=O)[O-])o1)C(=O)N/N=C\C=C\c1ccc([N+](=O)[O-])o1`
false

Query `O=C1C=C(Nc2ccccc2C(=O)c2ccccc2)c2ccccc2C1=O` next
false

Field entry: `Cn1c(=O)nc2n(CCO)c(-c3ccccc3)c(-c3ccccc3)nc-2c1=O`
false

How about this molecule: `Cc1oncc1/N=C1\C=C(O)C(=O)c2ccccc21`
false

Would you kindly repeat that for `O=C(OCC(Cl)(Cl)Cl)N1CC[C@H](C2CCCCC2)C1` ?
false

Likewise for `CN(C)CN1CSC(=S)N(CN(C)C)C1` ?
false

Next: `COc1cc2noc(-c3ccccc3)c2cc1OC`
false

Ok, now `C=C(Br)COc1ccc2c(C)cc(=O)oc2c1`
false

And the next one, `c1ccc(CSC2(SCc3ccccc3)CCCC2)cc1` ?
false

// query: `CN(C)C(=S)/N=c1\ssc(=S)n1C`
false

Input CC(=O)O[C@H]1C[C@H](O[C@H]2[C@@H](O)C[C@H](O[C@H]3[C@@H](O)C[C@H](O[C@H]4CC[C@@]5(C)[C@H](CC[C@@H]6[C@@H]5C[C@@H](O)[C@]5(C)[C@@H](C7=CC(=O)OC7)CC[C@]65O)C4)O[C@@H]3C)O[C@@H]2C)O[C@H](C)[C@H]1O[C@@H]1O[C@H](CO)[C@@H](O)[C@H](O)[C@H]1O [LANATOSIDE C]
true

Next molecule: CCOC(=O)C(O)(NC(=O)NC(O)(C(=O)OCC)C(F)(F)F)C(F)(F)F (stereo not drawn)
false

And the next one, CC(=O)Nc1ccc(C2[C@H]3C(=O)N(c4ccc(Cc5ccc(N6C(=O)[C@@H]7ON(c8ccccc8)C(c8ccc(NC(C)=O)cc8)[C@@H]7C6=O)cc5)cc4)C(=O)[C@H]3ON2c2ccccc2)cc1 (stereo partly drawn) ?
false

Also `Nc1ncnc2c1ncn2-c1ccc([N+](=O)[O-])cn1` ?
false

Now consider `Cc1nc(NC(=S)NC(=O)c2ccc(Cl)c(Cl)c2)sc1C(=O)/C=C/c1ccccc1[N+](=O)[O-]` and answer again.
false

Try `O=C(NC(=O)c1c(Cl)nc2sccn12)Nc1ccc(Cl)cc1` next.
false

====

Test system: HL-60
Experimental Protocol: NCI tumour cell line growth inhibition, 48 h
Activity calls are given as the source filed them. No stated cut-off is given here; in the data, active = GI50 up to about 1.1 µM and inactive = higher.
Would you kindly list GI50 for each of these compounds?

Requested field: GI50. Item: `C=C1C(=O)O[C@H]2[C@@H](O)[C@H](C)CCC[C@]3(C)O[C@H]3CC[C@@]3(C)O[C@@H]3C[C@@H]12`
0.897 µM (active)

Likewise for CC1(C)CC(=O)C2=C(C1)OC1=C(CC(C)(C)CC1=O)C2c1ccccc1[N+](=O)[O-] (stereo not given) ?
> 100 µM (inactive)

Can you check `NS(=O)(=O)c1ccc(NC(=S)N/C=C2\C(=O)Oc3ccccc3C2=O)cc1` next?
21.4 µM (inactive)

Same lookup for C/C=C/C(C/C=C(\C)CO[Si](C)(C)C(C)(C)C)O[Si](C)(C)C(C)(C)C (stereo not given) , please.
> 100 µM (inactive)

Likewise for CCC(/C=C/C1OC(=O)C=CC1C)=C\C(C)C/C=C/C(C)=C/C(C)C(=O)C(C)C(O)C(C)C/C(C)=C/C(=O)O (stereo not given) ?
0.855 µM (active)

Do the same for `CCOC(=O)c1c[nH]c(C(=O)OCC)c1-c1cccn1-c1ccccc1` please
18.4 µM (inactive)

Please answer likewise for `O=C(Nc1ccc(Cl)cc1)NS(=O)(=O)c1coc2ccccc2c1=O`
> 10 µM (inactive)

Can you handle `CN(/N=C1\C(=O)Nc2ccccc21)c1ccccc1` next?
56.5 µM (inactive)

Further, for `COc1ccc(/C(C#N)=C/c2ccc(OC)c(OC)c2)cc1` ?
> 100 µM (inactive)

Could you do the same for `O=c1/c(=C/c2ccc3c(c2)OCO3)sc2nnc(Cc3ccccc3)n12` , please?
> 100 µM (inactive)

Again, but for `CSc1ccc2c(cc1=O)[C@@H](NC(=O)c1ccc(F)cc1)CCc1cc(O)c(O)c(O)c1-2`
> 100 µM (inactive)

Here is the next compound: `CCSc1nn(-c2c3ccccc3nc3ccccc23)c(=S)s1`
> 100 µM (inactive)

What would you report for `O=S(=O)(O)c1c(Cl)c(Cl)c(O)c2ncccc12` ?
1.87 µM (inactive)

Try the compound `Cn1c(=O)sc2cc(C(=S)N3CCCCC3)ccc21`
17.7 µM (inactive)

Please answer likewise for `N#C/C(=C\N1CCNC1=S)C(=O)c1ccc2ccccc2c1`
7.06 µM (inactive)

What about `CCn1c2ccccc2c2c(-c3ccccc3)cc3c(c21)C(=O)N(c1ccccc1)C3=O` ?
> 100 µM (inactive)

Entry `COc1ccc(N2C(=O)/C(=C/c3ccc(N(CCC#N)CCC#N)cc3C)N=C2c2cc([N+](=O)[O-])ccc2Cl)cc1` please
3.62 µM (inactive)

How about `CN(C)CCCN1N=Nc2cccc3cccc1c23` ?
30.3 µM (inactive)

Ok, now `CCOC(=O)[C@@H]1[C@@H]2NC(=O)N[C@@]1(C)Oc1ccccc12`
> 100 µM (inactive)

Same read-out for `O=C(/C=C/c1cccc(Br)c1)c1cccs1` ?
3.83 µM (inactive)

====

System: SN12C
Experimental Protocol: NCI tumour cell line growth inhibition, 48 h
Calls of active or inactive are those of the source. Cut-off read from the data, not from the text of the source: active = GI50 up to about 1.1 µM and inactive = higher.
Readout: GI50

What value of measured GI50 is listed for `Cc1cc(S(=O)(=O)Nc2nnc3c(C(F)(F)F)cc(Cl)cn23)c(S)cc1Cl` ?
> 100 µM (inactive)

Then what about the molecule `O=c1[nH]c(=O)n(Cc2ccccc2CO)cc1Sc1ccccc1` ?
34.8 µM (inactive)

Cool, now COc1ccc(C(Cc2cc(OC)c(OC)c(OC)c2)C(=O)O)cc1 (stereo unspecified)
> 100 µM (inactive)

What do you have for COCC1N=C(c2cc(OC)c(OC)c(OC)c2-c2cc3c(cc2C2OCCCO2)OCO3)O[C@H]1c1ccccc1 (stereo partly specified) ?
> 100 µM (inactive)

Continue with C=CCC1(C)CCCCC1(O)C[S+]([O-])c1ccccc1 (stereo unspecified)
> 100 µM (inactive)

Record: `O=c1[nH]c(=O)c2c([nH]1)[nH]c1ccccc12`
> 100 µM (inactive)

Repeat with COc1ccccc1/C=C/C1=NN(c2cccc(S(=O)(=O)O)c2)C2(C1)C(Cl)C(=O)N2c1nc2ccccc2s1 (stereo unspecified)
> 84.1 µM (inactive)

What do you get for `O=C(CCCCCNC(=O)c1ccc(Cl)cc1)NO` ?
5.51 µM (inactive)

Next molecule: O=C(O)C12CCCCC1CCCC2 (stereo unspecified)
> 100 µM (inactive)

Now give it for ClCCCC1COc2ccccc2O1 (stereo unspecified) too.
> 100 µM (inactive)

And for `CC(C)CCNC(=O)c1ccc(CNC(=O)/C=C/c2ccc3c(c2)-c2ccccc2C3)cc1` ?
> 100 µM (inactive)

One more molecule: COc1cccc(C2c3cc4c(cc3OC(O)(CO)C2C(=O)O)OCO4)c1.COc1cccc(C2c3cc4c(cc3OC3(O)COC(=O)C23)OCO4)c1 (stereo unspecified)
55.3 µM (inactive)

Then what about the molecule `CCCCCCn1c(SCC)c2ccccc2c1-c1nc(F)nc(F)n1` ?
> 100 µM (inactive)

Now give it for `O=S(=O)(O)c1ccc(/N=N/c2ccccc2)cc1` too.
> 100 µM (inactive)

Try the molecule `O=C(CSC(=S)N1CCOCC1)Nc1nc2c(s1)CCCC2`
> 100 µM (inactive)

How about `NC(=O)[C@H](Cc1ccc(O)cc1)NC1=C(Cl)C(=O)c2c(O)ccc(O)c2C1=O` ?
3.55 µM (inactive)

Param item: `COc1cccc(-n2c(N)c(-c3nc4cc(C(F)(F)F)ccc4s3)c3ccc([N+](=O)[O-])cc3c2=O)c1`
> 100 µM (inactive)

Same question, `O=[N+]([O-])c1cccc(Nc2nc(Cl)nc(Cl)n2)c1` this time
> 100 µM (inactive)

What do you get for `COc1cc(O)cc2oc(-c3ccc(O)cc3)cc(=O)c12` ?
> 100 µM (inactive)

# repeat for `O=C(O)[C@@H]1CSCN1C(=O)[C@@H]1CCC(=S)N1`
> 100 µM (inactive)

Same thing, different molecule: O=C1C[C@@H]2C(COC(=O)c3ccccc3)N(OCc3ccccc3)C[C@@H]2O1 (stereo partly specified)
> 100 µM (inactive)
